experiment: Physico-chemical characterization of LNPs made of different ionizable lipids (DLS, zeta potential); assay type: physicochemical; conditions: mRNA LNPs: ionizable lipid, DSPC, Cholesterol, DMG-PEG 30:18:49.5:2.5 mole ratio
Recorded Zeta (zeta potential) by entry
Please state the figure in mV; there is no need to write the unit.

A selection of reference data follows.
CCCCC/C=C\C/C=C\CCCCCCCCN(CCO)CCCCCCCCCCOC(=O)CCCCCCCCCN(CCO)CCCCCCCC/C=C\C/C=C\CCCCC    −6.37
CCCCC/C=C\C/C=C\CCCCCCCCN(CCO)CCCCCCCCCC(=O)ON(CCCCCCCCCCCC)CCCCCCCCCCCC    −6.97
CCCCC/C=C\C/C=C\CCCCCCCCN(CCO)CCCCCCCCCCCOC(=O)CCCCCCCCCN(O)CCCCCCCCCCCC    −3.90
CCCCCCN(CCCCCC)OC(=O)CCCCCCCCCN(CCO)CCCCCCCCCC(=O)ON(CCCCCC)CCCCCC    −5.65
CCCCCCCCCCCCN(CCO)CCCCCCCCCCOC(=O)CCCCCCCCCN(CCO)CCCCCCCCCCCC    −1.43
CCCCCCCCCCCCN(CCO)CCCCCCCCCC(=O)ON(CCCCCCCCCCCC)CCCCCCCCCCCC    −5.31

Lab note: measured Zeta (zeta potential) of CCCCC/C=C\C/C=C\CCCCCCCCN(CCO)CCCCCCCCCCOC(=O)CCCCCCCCCN(CCO)CCCCCCCCCC(=O)OCCCCCCCCCCN(CCO)CCCCCCCC/C=C\C/C=C\CCCCC was −2.68

Lab note: measured Zeta (zeta potential) of CCCCCCCCCCCCN(CCCCCCCCCCCC)CC(=O)ON(CCCCCCCCCCCC)CCCCCCCCCCCC was −5.00

Lab note: measured Zeta (zeta potential) of CCCCCCN(CCCCCC)CCOC(=O)CCCCCCCCCN(CCO)CCCCCCCCCC(=O)OCCN(CCCCCC)CCCCCC was −2.68

Lab note: measured Zeta (zeta potential) of CCCCC/C=C\C/C=C\CCCCCCCCN(CCO)CCCCCCCCCCOC(=O)CCCCCCCCCN(CCO)CCCCCCCCCCCC was −7.52
